Measured self-cleavage kobs at 40 uM GlcN6P values are reported for all entries that follow.
B1: glmS ribozyme (parent)
chain: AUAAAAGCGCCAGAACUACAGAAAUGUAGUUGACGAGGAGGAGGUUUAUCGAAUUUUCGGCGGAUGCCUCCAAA

# Variants of: B1
# MEASUREMENT NOTES: self-cleavage kobs at 40 uM GlcN6P; higher = faster cleavage; RNA array
# EXPERIMENTAL CONDITIONS: with glucosamine-6-phosphate
Variants at the floor of the assay were thinned out.

Recorded results for 5 variants are shown here.
Problem: Which self-cleavage kobs at 40 uM GlcN6P reading was recorded for the variant AUAAAAGCGCCAGAGCUACAGAAAUGUAGUUGACGAGGAGGAGGUUUAUCGAAUUUUCGGCGCAUGCCUCCAAA [A15G G63C] ?
Solution: < 1e-05 s⁻¹

Problem: Which self-cleavage kobs at 40 uM GlcN6P reading was recorded for the variant AUAAAAGCGCCACAGCUACAGAAAUGUAGUUGACGAGGAGGAGGAUUAUCGAAUUUUCGGCGGAUGCCUCCAAA [G13C A15G U45A] ?
Solution: < 1e-05 s⁻¹

Problem: Which self-cleavage kobs at 40 uM GlcN6P reading was recorded for the variant AUAAAAGCGCCAGAACUACAGAAAUGUAGUUGACGAGAAGGAGGUUUAUCGAAGUUUCGGCGGAUGCCUCCAAA [G38A U54G] ?
Solution: < 1e-05 s⁻¹

Problem: Which self-cleavage kobs at 40 uM GlcN6P reading was recorded for the variant AUAAAAGCGCCAGAACUACAGAAAUGUAGUUGACGAGGAGAAGGUUUAGCGAAUUUUCGGCGGAUGUCUCUAAA [G41A U49G C67U C71U] ?
Solution: < 1e-05 s⁻¹

Problem: Which self-cleavage kobs at 40 uM GlcN6P reading was recorded for the variant AUAAACGCGCCAGAACUACAGAAAUGUAGUUGACGAGGAGGAGGUUUAUCGAAUUUUCGGGGGAUGCCUCCAAA [A6C C61G] ?
Solution: < 1e-05 s⁻¹

// next entry
Problem: Which self-cleavage kobs at 40 uM GlcN6P reading was recorded for the variant AUAAAAGCGCCAUAACUACAGAAAUGUAGUUGUCGAGGAGGAGCUUUAUCGAAUUUUCGGCGGAUGCCUCCAAA [G13U A33U G44C] ?
Solution: < 1e-05 s⁻¹
